Taken from paper PMC9756784.

conditions: plasma; 4°C
Readout kind: Length of time for which stability is assumed (h 4 °C)

INSERT INTO results (compound, unit, observed_value) VALUES
  ('C[C@]1(Cn2ccnn2)[C@H](C(=O)O)N2C(=O)C[C@H]2S1(=O)=O', 'h 4 °C', 24),
  ('Cc1nnc(SCC2=C(C(=O)O)N3C(=O)[C@@H](NC(=O)Cn4cnnn4)[C@H]3SC2)s1', 'h 4 °C', 48),
  ('CC(C)(O/N=C(\C(=O)N[C@@H]1C(=O)N2C(C(=O)[O-])=C(C[n+]3ccccc3)CS[C@H]12)c1csc(N)n1)C(=O)O', 'h 4 °C', 8),
  ('Cc1onc(-c2c(F)cccc2Cl)c1C(=O)N[C@@H]1C(=O)N2[C@@H]1SC(C)(C)[C@@H]2C(=O)O', 'h 4 °C', 24),
  ('CCN1CCN(C(=O)N[C@@H](C(=O)N[C@@H]2C(=O)N3[C@@H]2SC(C)(C)[C@@H]3C(=O)O)c2ccccc2)C(=O)C1=O', 'h 4 °C', 24),
  ('CO/N=C(\C(=O)N[C@@H]1C(=O)N2C(C(=O)[O-])=C(C[N+]3(C)CCCC3)CS[C@H]12)c1csc(N)n1 [Cefepime, cefepime]', 'h 4 °C', 8),
  ('CC(=O)NC[C@H]1CN(c2ccc(N3CCOCC3)c(F)c2)C(=O)O1', 'h 4 °C', 48),
  ('C[C@@H](O)[C@H]1C(=O)N2C(C(=O)O)=C(S[C@@H]3CN[C@H](C(=O)N(C)C)C3)[C@H](C)[C@H]12', 'h 4 °C', 24),
  ('CO/N=C(\C(=O)N[C@@H]1C(=O)N2C(C(=O)O)=C(COC(C)=O)CS[C@H]12)c1csc(N)n1', 'h 4 °C', 48);

====

details: whole blood versus plasma
Readout kind: Relative stability in whole blood and plasma

INSERT INTO results (chem_smiles, observed_value) VALUES
  ('Cc1nnc(SCC2=C(C(=O)O)N3C(=O)[C@@H](NC(=O)Cn4cnnn4)[C@H]3SC2)s1', 'stable in both matrices'),
  ('CC(=O)NC[C@H]1CN(c2ccc(N3CCOCC3)c(F)c2)C(=O)O1', 'stable in both matrices');

====

conditions: plasma; RT (room temperature)
Readout kind: Length of time for which stability is assumed (h RT)

INSERT INTO measurements (molecule, observed_value) VALUES
  ('CO/N=C(\C(=O)N[C@@H]1C(=O)N2C(C(=O)O)=C(COC(C)=O)CS[C@H]12)c1csc(N)n1 [Cefotaxime, cefotaxime]', 8),
  ('C[C@]1(Cn2ccnn2)[C@H](C(=O)O)N2C(=O)C[C@H]2S1(=O)=O [Tazobactam, tazobactam]', 8),
  ('CO/N=C(\C(=O)N[C@@H]1C(=O)N2C(C(=O)[O-])=C(C[N+]3(C)CCCC3)CS[C@H]12)c1csc(N)n1 [Cefepime, cefepime]', 5),
  ('CC(=O)NC[C@H]1CN(c2ccc(N3CCOCC3)c(F)c2)C(=O)O1 [Linezolid, linezolid]', 24),
  ('Cc1nnc(SCC2=C(C(=O)O)N3C(=O)[C@@H](NC(=O)Cn4cnnn4)[C@H]3SC2)s1 [Cefazolin, cefazolin]', 24),
  ('CCN1CCN(C(=O)N[C@@H](C(=O)N[C@@H]2C(=O)N3[C@@H]2SC(C)(C)[C@@H]3C(=O)O)c2ccccc2)C(=O)C1=O [Piperacillin, piperacillin]', 5),
  ('C[C@@H](O)[C@H]1C(=O)N2C(C(=O)O)=C(S[C@@H]3CN[C@H](C(=O)N(C)C)C3)[C@H](C)[C@H]12 [Meropenem, meropenem]', 8),
  ('Cc1onc(-c2c(F)cccc2Cl)c1C(=O)N[C@@H]1C(=O)N2[C@@H]1SC(C)(C)[C@@H]2C(=O)O [Flucloxacillin, flucloxacillin]', 8);
